READOUT TYPE: melting point (°C)
Just the number please, in °C, no unit attached.

Q: Give reported melting point value for O=C(O)c1c(Br)cccc1Br
Ans: 150

Q: Give reported melting point value for CC1(c2ccccc2)OC(C(=O)O)=CC1=O (configuration not stated)
Ans: 176

Q: Give reported melting point value for O=C(O)c1cccc(N=C=S)c1
Ans: 165

Q: Give reported melting point value for Oc1cccc(Cl)c1O
Ans: 48.5

Q: Give reported melting point value for CCCCc1ccc(N=Cc2ccc(C=Nc3ccc(CCCC)cc3)cc2)cc1
Ans: 232

Q: Give reported melting point value for CC(CCC(=O)O)n1nnc2ccccc21 (configuration not stated)
Ans: 86

Q: Give reported melting point value for CCOC(=O)C1=C(C)NC(=O)NC1c1ccccc1[N+](=O)[O-] (configuration not stated)
Ans: 220

Q: Give reported melting point value for NCCNC(=O)C(=O)NCc1ccccn1
Ans: 257

Q: Give reported melting point value for CN(C)C1C(=O)C(=C(N)O)C(=O)C2(O)C(=O)C3=C(O)c4c(O)cccc4C(C)(O)C3C(O)C12 (configuration not stated)
Ans: 121
